Tested on: Crabgrass
Protocol description: Post-emergence herbicidal activity, greenhouse
Assay type: in vivo
Measurement parameters: Table II; 1.12 kg/h; 4 WAT
Here, each record is paired with measured post-emergence herbicidal activity index data.

molecule="CCOC(=O)CN(CP(=O)(Oc1ccc(OC)cc1)Oc1ccc(OC)cc1)SSC [VI]" readout="post-emergence herbicidal activity index" result="4 (100% control)"
molecule="COC(=O)CN(CP(=O)(Oc1ccccc1OC)Oc1ccccc1OC)SSc1cccc(C(F)(F)F)c1 [V]" readout="post-emergence herbicidal activity index" result="2 (50-74% control)"
molecule="O=C(CN(CP(=O)(Oc1ccccc1)Oc1ccccc1)SSCCc1ccccc1)OCc1ccccc1 [IV]" readout="post-emergence herbicidal activity index" result="2 (50-74% control)"
molecule="CCCCCCCCSSN(CC(=O)OC)CP(=O)(Oc1ccccc1)Oc1ccccc1 [II]" readout="post-emergence herbicidal activity index" result="2 (50-74% control)"

Lab note: next molecule to report on.
The recorded post-emergence herbicidal activity index for COC(=O)CN(CP(=O)(Oc1ccccc1)Oc1ccccc1)SSC(C)C [I] is 3 (75-99% control)
